System: SW480 (KRAS-G12V)
Procedure summary: Anti-proliferation assay on SW480
Format: cell-based
Particulars: Homo sapiens, SW480; 72 h treatment; average with SD (n = 3, duplicate)
Records here are stratified by GI50; strata: LOW = under 300 nM, MID = from 300 nM up to 1000 nM, HIGH = 1000 nM and over

Exercise: Sort into band: "Cc1ccc(NC(=O)c2cccc(C(F)(F)F)c2)cc1N1Cc2cnc(Nc3cnn(C)c3)nc2N(C)C1=O"
Solution: LOW

Exercise: Again, but for "Cc1ccc(Nc2ncc3c(n2)N(C)C(=O)N(c2cc(NC(=O)c4cccc(C(F)(F)F)c4)ccc2C)C3)c(C)n1"
Solution: HIGH

Exercise: Try this molecule too: "Cc1ccc(NC(=O)c2cccc(C(F)(F)F)c2)cc1N1Cc2cnc(Nc3cnn(C4CCN(S(C)(=O)=O)CC4)c3)nc2N(C)C1=O"
Solution: MID

Exercise: Then this molecule: "CCN1CCN(c2ccc(Nc3ncc4c(n3)N(C)C(=O)N(c3cc(NC(=O)c5cccc(C(F)(F)F)c5)ccc3C)C4)c(C(F)(F)F)c2)CC1"
Solution: HIGH

Exercise: Try this molecule next: "CCN1CCC(n2cc(Nc3ncc4c(n3)N(C)C(=O)N(c3cc(NC(=O)c5cccc(C(F)(F)F)c5)ccc3C)C4)cn2)CC1"
Solution: LOW
